Target Of Assay: Aldo-keto reductase family 1 member C4 (Homo sapiens, UniProt P17516)
Sequence (P17516 whole entry): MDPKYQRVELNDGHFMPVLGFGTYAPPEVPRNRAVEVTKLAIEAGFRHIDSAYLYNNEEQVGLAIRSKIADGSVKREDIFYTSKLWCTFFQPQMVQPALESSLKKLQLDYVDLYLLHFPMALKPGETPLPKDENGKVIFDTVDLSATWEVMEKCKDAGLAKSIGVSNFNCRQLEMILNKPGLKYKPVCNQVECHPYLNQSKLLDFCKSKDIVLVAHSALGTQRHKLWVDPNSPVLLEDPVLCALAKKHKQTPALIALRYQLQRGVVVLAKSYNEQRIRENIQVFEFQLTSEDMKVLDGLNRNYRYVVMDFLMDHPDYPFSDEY
Assay: Inhibition of human recombinant AKR1C4
pKi: −log10 of the molar value.

Sample Smiles | pKi
O=C(O)c1cc(Cl)cc(Cl)c1O | 4.62

====

Target Of Assay: Aldo-keto reductase family 1 member C3 (Homo sapiens)
Sequence (P42330 whole entry): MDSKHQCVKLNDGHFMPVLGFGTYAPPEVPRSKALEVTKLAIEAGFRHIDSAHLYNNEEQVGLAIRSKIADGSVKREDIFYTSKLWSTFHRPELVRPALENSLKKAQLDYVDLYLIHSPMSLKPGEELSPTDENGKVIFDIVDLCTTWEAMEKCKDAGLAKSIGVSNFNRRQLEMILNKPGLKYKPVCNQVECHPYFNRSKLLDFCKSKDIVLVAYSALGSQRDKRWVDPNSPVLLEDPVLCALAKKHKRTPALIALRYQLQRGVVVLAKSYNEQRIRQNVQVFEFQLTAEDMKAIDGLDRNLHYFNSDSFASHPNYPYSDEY
Assay: Inhibition of human recombinant AKR1C3

Sample Smiles | Result Units | Ki
O=C(O)c1cc(Cl)cc(Cl)c1O | µM | 94

The measured values listed here are drawn from ChEMBL document CHEMBL1155846.
